Each entry below lists one item and its recorded % Activity value.
# target-under-test: hNMUR2 (Homo sapiens)
# Sequence (Q9GZQ4 whole entry): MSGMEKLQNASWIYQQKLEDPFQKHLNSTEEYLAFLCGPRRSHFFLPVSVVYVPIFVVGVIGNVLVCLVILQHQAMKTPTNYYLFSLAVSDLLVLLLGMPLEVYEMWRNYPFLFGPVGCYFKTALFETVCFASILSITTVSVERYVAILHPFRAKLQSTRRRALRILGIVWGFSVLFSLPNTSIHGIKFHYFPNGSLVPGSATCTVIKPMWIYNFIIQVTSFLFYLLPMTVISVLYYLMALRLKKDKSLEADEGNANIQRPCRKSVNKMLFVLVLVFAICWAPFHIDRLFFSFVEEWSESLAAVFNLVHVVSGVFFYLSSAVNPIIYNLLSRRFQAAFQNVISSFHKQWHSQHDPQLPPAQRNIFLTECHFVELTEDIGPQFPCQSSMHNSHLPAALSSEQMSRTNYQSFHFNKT
# assay-notes: In vitro functional assay, HEK-hR2 cells
# Assay type: cell-based
# Parameters: expressed in transfected cells; host or cells: FLP-In CHO or HEK-293 FLP-In cells (pcDNA5); HEK-293/aeq17 lines (pcDNA3.1) were also made; concentration or dose not given beside the values
# condition-summary: Table 8, HEK-hR2, functional
No end group written: not given here.

| substance | % Activity |
| --- | --- |
| H-FRVDEEFQSPFASQSRGYFWRPRN-NH2 [Agonist G] | 14% |
| Ac-FFRPRN-NH2 [Agonist F, Ac-FFRPRN-CONH2] | 96% |
| H-YFGWRPRN-NH2 [Agonist C] | 0% |
| YFWRPRN-NH2 [Agonist A, YFWRPRN-CONH2] | 0% |

* * *

Each entry below lists one item and its recorded % Food intake (FI) reductions Day 2 value.
# Test system: diet-induced obese mice
# assay-notes: Feeding study in diet-induced obese mice (food intake, body weight)
# Type: in vivo
# condition-summary: 10 mg/kg, Day 2, based on vehicle responses

| substance | target-under-test | unit-label | % Food intake (FI) reductions Day 2 |
| --- | --- | --- | --- |
| Ac-C2FQSPFASQSRGYFLFRPRN-CONH2 ({Ac-C(PEG 40 kDa)}-FQSPFASQSRGYFLFRPRN-NH2; not fully specified; printed as Ac-C2FQSPFASQSRGYFLFRPRN-CONH2) [NMU20, C2 = Cys(PEG)240 kDa] | diet-induced obese mice | % | 65 |
| Ac-C2FRVDEEFQSPFASQSRGYFLFRPRN-CONH2 [NMU9] ({Ac-C(PEG 40 kDa)}-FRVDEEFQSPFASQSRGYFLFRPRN-NH2) [C2 = Cys(PEG)240 kDa from Nektar (mPEG2-MAL-40 k)] | diet-induced obese mice | % | 57 |
| P1-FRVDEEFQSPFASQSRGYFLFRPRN-CONH2 ({branched PEG 40 kDa}-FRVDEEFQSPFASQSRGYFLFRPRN-NH2) [NMU1, P1 = (PEG)240 kDa; branched PEG of 40 kDa linked at N-terminus of native human NMU] | diet-induced obese mice | % | 56 |
| Ac-C2ASQSRGYFLFRPRN-CONH2 (Ac-C((PEG)2 40 kDa)ASQSRGYFLFRPRN-NH2) [NMU18, C2 = Cys(PEG)240 kDa] | diet-induced obese mice | % | 40 |
| Ac-C2FRVDEEFQSPFASQSRGYFLFRPRN-CONH2 [NMU12] (Ac-C((PEG)2 40 kDa)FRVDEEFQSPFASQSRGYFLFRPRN-NH2) [C2 = Cys(PEG)240 kDa from NOF Corporation (SUNBRIGHT GL2-400MA)] | diet-induced obese mice | % | 50 |

* * *

# target-under-test: mouse NMUR2 (Mus musculus)
# Sequence (Q8BZ39 whole entry): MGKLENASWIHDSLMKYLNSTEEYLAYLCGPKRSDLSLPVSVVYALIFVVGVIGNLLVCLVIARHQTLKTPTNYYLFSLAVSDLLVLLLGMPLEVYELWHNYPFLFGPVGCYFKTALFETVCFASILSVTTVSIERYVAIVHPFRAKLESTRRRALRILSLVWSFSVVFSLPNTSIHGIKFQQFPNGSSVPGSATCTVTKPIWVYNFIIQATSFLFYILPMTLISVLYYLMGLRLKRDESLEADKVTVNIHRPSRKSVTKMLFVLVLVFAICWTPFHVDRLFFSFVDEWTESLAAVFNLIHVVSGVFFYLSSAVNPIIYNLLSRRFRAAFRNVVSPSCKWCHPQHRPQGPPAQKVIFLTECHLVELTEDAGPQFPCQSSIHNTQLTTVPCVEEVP
# assay-notes: FLIPR calcium mobilization assay, mouse NMUR2
# Assay type: cell-based
# Design: expressed in transfected cells; host or cells: FLP-In CHO or HEK-293 FLP-In cells (pcDNA5)
# condition-summary: functional data, mouse R2
result-type: IC50 (nM)

| substance | measured |
| --- | --- |
| H-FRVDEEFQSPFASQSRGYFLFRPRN-NH2 [hNMU-25, reference compound] | 0.2 |

* * *

# target-under-test: hNMUR1 (Homo sapiens, UniProt Q9HB89)
# Sequence (Q9HB89 1-426): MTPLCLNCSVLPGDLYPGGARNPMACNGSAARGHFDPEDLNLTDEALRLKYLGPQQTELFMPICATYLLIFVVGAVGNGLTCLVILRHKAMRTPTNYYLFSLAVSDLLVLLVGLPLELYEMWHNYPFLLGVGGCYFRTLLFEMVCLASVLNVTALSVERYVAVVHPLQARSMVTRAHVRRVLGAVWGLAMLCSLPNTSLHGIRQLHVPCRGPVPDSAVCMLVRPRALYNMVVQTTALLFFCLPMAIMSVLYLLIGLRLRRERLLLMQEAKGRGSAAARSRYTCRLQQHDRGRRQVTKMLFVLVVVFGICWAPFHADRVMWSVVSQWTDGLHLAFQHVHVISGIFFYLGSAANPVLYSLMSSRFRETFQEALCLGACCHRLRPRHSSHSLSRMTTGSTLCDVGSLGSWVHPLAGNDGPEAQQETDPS
# assay-notes: In vitro functional assay, HEK-hR1 cells
# Format: cell-based
# Design: expressed in transfected cells; host or cells: FLP-In CHO or HEK-293 FLP-In cells (pcDNA5); HEK-293/aeq17 lines (pIRES-puro) were also made
# condition-summary: Table 9, HEK-hR1, functional
No end group written: not given here.
result-type: % Activity (%)

| substance | target-under-test | unit-label | measured |
| --- | --- | --- | --- |
| H-FWLFRARN-NH2 [Agonist L] | hNMUR1 (Homo sapiens, UniProt Q9HB89) | % | 74 |
| FALFRPRN-NH2 [Agonist N] | hNMUR1 (Homo sapiens, UniProt Q9HB89) | % | 87 |
| WALFRARN-NH2 [Agonist M] | hNMUR1 (Homo sapiens, UniProt Q9HB89) | % | 0 |
| H-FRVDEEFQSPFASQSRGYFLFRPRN-NH2 [hNMU-25, reference compound] | hNMUR1 (Homo sapiens, UniProt Q9HB89) | % | 100 |

* * *

# target-under-test: mouse NMUR1-ATG (Mus musculus)
# Sequence (O55040 1-428): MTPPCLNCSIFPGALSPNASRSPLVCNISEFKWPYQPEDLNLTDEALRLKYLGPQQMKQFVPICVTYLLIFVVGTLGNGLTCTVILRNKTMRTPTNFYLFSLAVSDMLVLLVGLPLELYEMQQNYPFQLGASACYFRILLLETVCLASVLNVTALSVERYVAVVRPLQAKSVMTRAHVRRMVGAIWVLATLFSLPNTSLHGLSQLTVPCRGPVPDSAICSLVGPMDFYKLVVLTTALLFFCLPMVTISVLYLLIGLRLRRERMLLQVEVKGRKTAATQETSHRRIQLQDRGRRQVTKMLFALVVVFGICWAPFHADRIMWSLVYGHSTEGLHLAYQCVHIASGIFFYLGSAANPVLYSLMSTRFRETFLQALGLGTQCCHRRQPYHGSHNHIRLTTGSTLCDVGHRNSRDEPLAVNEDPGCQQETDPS
# assay-notes: FLIPR calcium mobilization assay, mouse NMUR1-ATG
# Format: cell-based
# Set-up: expressed in transfected cells; host or cells: FLP-In CHO or HEK-293 FLP-In cells (pcDNA5)
# condition-summary: maximum response at 1 μM compared to hNMU-25; mouse NMUR1-ATG
Starred links: 1 amine or outer side, 2 acyl side, 3 side chain; linkers in the order of their positions; H or OH if unused. Residues, ends and D or L forms follow the SMILES beside them. *: point of attachment. X1 = CC(C)CCC[C@@H](C)[C@H]1CC[C@H]2[C@@H]3CC=C4C[C@@H](OC(=O)C*)CC[C@]4(C)[C@H]3CC[C@]12C; X2 = CCN1C(=O)CC(SC[C@H](NC(C)=O)C(=O)NCCCOCCOCCOCCCN*)C1=O; Succinimide(1-Et,3-yl) = CCN1C(=O)CC(*)C1=O; Suc = O=C(CCC(=O)[*:2])[*:1]
Each entry below lists one item and its recorded % Activity value.

| compound | % Activity |
| --- | --- |
| CC(=O)N[C@@H](CSCC(=O)O[C@H]1CC[C@@]2(C)C(=CC[C@H]3[C@@H]4CC[C@H]([C@H](C)CCCC(C)C)[C@@]4(C)CC[C@@H]32)C1)C(=O)NCC(=O)N[C@@H](Cc1ccc(O)cc1)C(=O)N[C@@H](Cc1ccccc1)C(=O)N[C@@H](CC(C)C)C(=O)N[C@@H](Cc1ccccc1)C(=O)N[C@@H](CCCNC(=N)N)C(=O)N1CCC[C@H]1C(=O)N[C@@H](CCCNC(=N)N)C(=O)N[C@@H](CC(N)=O)C(N)=O [NMU11] (Ac-C(X1)GYFLFRPRN-NH2) | 81.3% |
| CCN1C(=O)CC(SC[C@H](NC(C)=O)C(=O)NCC(=O)N[C@@H](Cc2ccc(O)cc2)C(=O)N[C@@H](Cc2ccccc2)C(=O)N[C@@H](CC(C)C)C(=O)N[C@@H](Cc2ccccc2)C(=O)N[C@@H](CCCNC(=N)N)C(=O)N2CCC[C@H]2C(=O)N[C@@H](CCCNC(=N)N)C(=O)N[C@@H](CC(N)=O)C(N)=O)C1=O (stereo partly shown) [NMU6] (Ac-C(Succinimide(1-Et,3-yl))GYFLFRPRN-NH2) | 100% |
| CCN1C(=O)CC(SC[C@H](NC(C)=O)C(=O)NCCCOCCOCCOCCCNC(=O)CCC(=O)N[C@@H](Cc2ccccc2)C(=O)N[C@@H](CC(C)C)C(=O)N[C@@H](Cc2ccccc2)C(=O)N[C@@H](CCCNC(=N)N)C(=O)N2CCC[C@H]2C(=O)N[C@@H](CCCNC(=N)N)C(=O)N[C@@H](CC(N)=O)C(N)=O)C1=O (stereo partly shown) [NMU15, Ac-C1-Ttds-FLFRPRN-CONH2] ({X2-Suc}-FLFRPRN-NH2) | 100% |
| CCN1C(=O)CC(SC[C@H](NC(C)=O)C(=O)N[C@@H](C)C(=O)N[C@@H](CO)C(=O)N[C@@H](CCC(N)=O)C(=O)N[C@@H](CO)C(=O)N[C@@H](CCCNC(=N)N)C(=O)NCC(=O)N[C@@H](Cc2ccc(O)cc2)C(=O)N[C@@H](Cc2ccccc2)C(=O)N[C@@H](CC(C)C)C(=O)N[C@@H](Cc2ccccc2)C(=O)N[C@@H](CCCNC(=N)N)C(=O)N2CCC[C@H]2C(=O)N[C@@H](CCCNC(=N)N)C(=O)N[C@@H](CC(N)=O)C(N)=O)C1=O (stereo partly shown) [NMU17] (Ac-C(Succinimide(1-Et,3-yl))ASQSRGYFLFRPRN-NH2) | 100% |
